Type: in vivo
Conditions: rat, plasma, po, 402 mg/kg
value kind: Cmax
I'd appreciate it if you included the unit after the number.

// sample COC(=O)Nc1nc2cc(C(=O)c3ccc(F)cc3)ccc2[nH]1 , its Cmax was 1330 ng/mL

====

Assay: in vitro
Conditions: male, human, Cytotoxicity (%), 7.5 µg/ml
value kind: cytotoxicity (%)
Number only, in %; omit the unit.

// sample COC(=O)Nc1nc2cc(C(=O)c3ccc(F)cc3)ccc2[nH]1 [Flubendazole, flubendazole] , its cytotoxicity was 8

====

Assay: in vitro
Settings: male, human, Cytotoxicity (%), 2.0 µg/ml
value kind: cytotoxicity (%)
Number only, in %; omit the unit.

// sample COC(=O)Nc1nc2cc(C(=O)c3ccc(F)cc3)ccc2[nH]1 , its cytotoxicity was 0

====

Type: in vivo
Details: rat, plasma, po, 130 mg/kg
value kind: Cmax (ng/mL)
Number only, in ng/mL; omit the unit.

// sample COC(=O)Nc1nc2cc(C(=O)c3ccc(F)cc3)ccc2[nH]1 [Flubendazole, flubendazole] , its Cmax was 900

====

Assay: in vitro
Conditions: male, human, Cytotoxicity (%), 0.075 µg/ml
value kind: cytotoxicity (%)
Number only, in %; omit the unit.

// sample COC(=O)Nc1nc2cc(C(=O)c3ccc(F)cc3)ccc2[nH]1 [Flubendazole, flubendazole] , its cytotoxicity was 0

====

Assay: in vitro
Details: male, human, Cytotoxicity (%), 0.100 µg/ml
value kind: cytotoxicity

// sample COC(=O)Nc1nc2cc(C(=O)c3ccc(F)cc3)ccc2[nH]1 , its cytotoxicity was 0%

====

Tested on: CHO-K1 cells
Conditions: Chinese hamster
value kind: BMD10 (µg/mL)
Number only, in µg/mL; omit the unit.

Sample records with BMD10:
COC(=O)Nc1nc2ccc(C(=O)c3ccccc3)cc2[nH]1 [Mebendazole, mebendazole]	0.024
CCC[S+]([O-])c1ccc2[nH]c(NC(=O)OC)nc2c1 (stereo not shown) [Albendazole sulfoxide, albendazole sulfoxide]	1.100
CCCCNC(=O)n1c(NC(=O)OC)nc2ccccc21 [Benomyl, benomyl]	0.450
CCCSc1ccc2nc(NC(=O)OC)[nH]c2c1 [Albendazole, albendazole]	0.037
CCCOc1ccc2nc(NC(=O)OC)[nH]c2c1 [Oxibendazole, oxibendazole]	0.015
COC(=O)Nc1nc2cc(C(=O)c3ccc(F)cc3)ccc2[nH]1 [Flubendazole, flubendazole]	0.019

Shifting focus to the molecule that follows.
// sample COC(=O)Nc1nc2ccccc2[nH]1 [Carbendazim, carbendazim] , its BMD10 was 0.310
